// data source = ChEMBL document CHEMBL3817793

Molecular target: Aromatase (Homo sapiens)
Assay: Inhibition of human placental microsomal aromatase using testosterone as substrate assessed as formation of estradiol after 10 mins
observation.type: IC50 (µM)
Write it as a number; the unit µM goes unstated.

Consider the compound `CC/C(=C(\c1ccc(O)cc1)c1ccc(OCCN(C)C)cc1)c1ccccc1` and give its measured IC50.
530

---

Target: UniProtKB P11511
Sequence (P11511 whole entry): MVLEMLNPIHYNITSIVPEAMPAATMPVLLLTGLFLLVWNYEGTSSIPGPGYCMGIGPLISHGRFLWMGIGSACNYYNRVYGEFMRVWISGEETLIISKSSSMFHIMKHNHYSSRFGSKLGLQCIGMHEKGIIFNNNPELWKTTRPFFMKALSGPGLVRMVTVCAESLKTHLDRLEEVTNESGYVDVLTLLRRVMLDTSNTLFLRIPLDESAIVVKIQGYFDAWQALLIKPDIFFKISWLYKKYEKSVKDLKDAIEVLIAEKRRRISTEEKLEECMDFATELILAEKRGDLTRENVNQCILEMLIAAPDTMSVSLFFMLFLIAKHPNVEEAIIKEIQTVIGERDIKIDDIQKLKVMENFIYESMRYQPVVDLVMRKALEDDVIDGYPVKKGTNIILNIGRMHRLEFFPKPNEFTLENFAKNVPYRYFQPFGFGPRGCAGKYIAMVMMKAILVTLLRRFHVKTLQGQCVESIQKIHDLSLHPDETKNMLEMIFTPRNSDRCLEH
Assay: Inhibition of human aromatase using testosterone as substrate incubated for 1 hr by HTRF assay
observation.type: pIC50
Schema: pIC50 number; meaning minus log10 of the concentration expressed in molar units.

Consider the molecule `Fc1ccc(-c2cc(-n3cccc3)c3ccccc3n2)cc1` and give its measured pIC50.
6.10

---

Molecular target: Aromatase (Homo sapiens)
Assay: Inhibition of particulate fractions of human breast cancer derived aromatase
observation.type: IC50 (nM)
Write it as a number; the unit nM goes unstated.

Consider the compound `C[C@]12CCC(=O)C(O)=C1CC[C@@H]1[C@@H]2CC[C@]2(C)C(=O)CC[C@@H]12` and give its measured IC50.
30

---

Target: Aromatase (Homo sapiens)
Assay: Inhibition of human placental microsomal aromatase using [1beta-3H] androstenedione as substrate assessed as tritiated H2O release after 15 mins by liquid scintillation counting method
observation.type: IC50 (nM)
Write it as a number; the unit nM goes unstated.

Consider the molecule `C=CC[C@@H]1CC2=CCCC[C@]2(C)[C@H]2CC[C@]3(C)C(=O)CC[C@H]3[C@H]12` and give its measured IC50.
750

Same again, this time with `C=CC[C@@H]1CC2=CC(=O)CC[C@]2(C)[C@H]2CC[C@]3(C)C(=O)CC[C@H]3[C@H]12`
590

Same again, this time with `C=CC[C@@H]1CC2=CC(=O)C=C[C@]2(C)[C@H]2CC[C@]3(C)[C@@H](O)CC[C@H]3[C@H]12`
450

---

Target protein (sequence): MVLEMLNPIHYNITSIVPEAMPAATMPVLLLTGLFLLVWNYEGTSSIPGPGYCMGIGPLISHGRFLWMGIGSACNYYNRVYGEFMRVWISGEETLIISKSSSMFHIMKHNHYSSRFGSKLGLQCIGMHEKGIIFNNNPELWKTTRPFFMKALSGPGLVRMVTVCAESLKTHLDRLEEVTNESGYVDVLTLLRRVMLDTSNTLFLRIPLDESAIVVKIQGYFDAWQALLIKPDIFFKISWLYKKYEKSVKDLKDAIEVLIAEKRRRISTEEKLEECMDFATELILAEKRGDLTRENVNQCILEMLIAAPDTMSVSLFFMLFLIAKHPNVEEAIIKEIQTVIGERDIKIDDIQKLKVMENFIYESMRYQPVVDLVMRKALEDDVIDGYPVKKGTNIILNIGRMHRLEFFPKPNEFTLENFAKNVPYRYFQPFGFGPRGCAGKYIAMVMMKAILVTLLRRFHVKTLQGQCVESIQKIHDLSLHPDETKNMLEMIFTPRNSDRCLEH
observation.type: Ki (nM)
Write it as a number; the unit nM goes unstated.

Consider the compound `COc1ccc2c(Cc3ccccc3)c(-c3ccc(Cl)cc3)c(=O)oc2c1` and give its measured Ki.
84
